Hello, the source for this data is paper PMC11995724, in case you need it.

assay-name: in vitro
measurement-setup: human, hek293t cells
# viability at 48 h, 25 µM listing for each entry below
metric-name: viability at 48 h, 25 µM

1) O=S(=O)(c1cc(Cl)cc(Cl)c1)N1CCSSCC1 :: 102%
2) C=CC(=O)NCCc1nnc(C)s1 :: 78.3%
3) O=C(CCl)c1c[nH]c2ccncc12 :: 1.3%
4) Cc1ccc(N2CCN(C(=O)C(C)Cl)CC2=O)o1 (centres unmarked) :: 74.7%
5) C=CC(=O)N[C@H]1CCN(S(=O)(=O)c2ccccc2)C1 :: 54.4%
6) N#CC(=Cc1ccc(F)cc1)C(=O)Nc1cccc2ncccc12 :: 118%
7) CC(Cl)C(=O)NCc1nnc2n1-c1ccccc1CC2 (centres unmarked) :: 110%
8) C=CC(=O)N1CCC(C(=O)N(C)C(C)c2sc(CC)nc2C)CC1 (centres unmarked) :: 95.1%
9) CC(Cl)C(=O)N(C)Cc1cc(Cl)cn1C (centres unmarked) :: 103%
10) CC(Cl)C(=O)N[C@H]1C[C@H](Cn2cncn2)C1 (some centres unmarked) :: 105%
11) Cc1cc(C)c(NC(=O)C(C#N)=Cc2ccccc2C)c(C)c1 :: 37.8%
12) C=CC(=O)NC(C)Cc1cccn1C (centres unmarked) :: 70.2%
13) CC(NC(=O)CCl)C(=O)N1CCCCC1C (centres unmarked) :: 104%
14) CCCn1c(N)c(C(=O)CCl)c(=O)[nH]c1=O :: 97.8%
15) CC(Cl)C(=O)NCC1CN(c2nncs2)CCO1 (centres unmarked) :: 106%
16) Cc1noc(C)c1C(=O)CCl :: 56.9%
17) N#CC1=C(N2CCOCC2)SC(c2ccc([N+](=O)[O-])cc2)NC1=O (centres unmarked) :: 112%
18) Cn1cc(C=C(C#N)C(=O)N2CCCC2)c(-c2cc3ccccc3o2)n1 :: 106%
19) CCN(CC)C(=O)/C(C#N)=C/c1cc(O)c(O)c([N+](=O)[O-])c1 :: 105%
20) C=CC(=O)N1CCCC2(CCCOC2)C1 (centres unmarked) :: 46.3%
21) O=C(CCl)c1cc2c3c(c1)CC(=O)N3CCC2 :: 1.58%
22) C=CC(=O)N1CCC(C(=O)N2CCN(CC(C)C)C(=O)C2C)CC1 (centres unmarked) :: 83.8%
23) CC(Cl)C(=O)NC1CCc2cc(C#N)ccc21 (centres unmarked) :: 105%
24) Cc1ccc(Sc2ccc(NC(=O)CCl)cc2)c(C)c1 :: 0.0415%
25) C=CC(=O)Nc1cc(C(=O)O)ccc1O [1-A12, 4-hydroxy-3-(prop-2-enamido)benzoic acid] :: 75.1%
26) C=CC(=O)Nc1ccc(C(=O)N2CCC[C@@H]2C(=O)OC)cc1 :: 104%
27) CCCCNC(=O)C(C#N)=Cc1cc(F)ccc1F :: 39.8%
28) C=CC(=O)N1CC[C@H](Oc2ccccc2)C1 :: 103%
29) N#CC(=Cc1ccc(F)c([N+](=O)[O-])c1)C(=O)Nc1ccc(F)cc1 :: 1.12%
30) Cc1ncccc1OCC1CCCN1C(=O)C(C)Cl (centres unmarked) :: 76.6%
31) C=CC(=O)N1CCc2c(nnn2CCOC)C1 :: 105%
32) CN(C)CCN1C(=O)C=CC1=O :: 96.9%
33) CN1C=CC(=C(C#N)C(=O)CCl)C=C1 :: 1.3%
34) C=CC(=O)N1C2CCCC1CC1(C2)NC(=O)NC1=O (centres unmarked) :: 89.2%
35) C=CC(=O)N1CCC(C(=O)N2CCCCCC2c2ccco2)CC1 (centres unmarked) :: 80.3%
36) CC1CN(C(=O)c2ccc(NC(=O)C(C)Cl)cc2)CC(C)O1 (centres unmarked) :: 79.1%
37) COc1cc([N+](=O)[O-])ccc1NC(=O)CCl :: 1.19%
38) C=CC(=O)N(Cc1sc(C)nc1C)[C@@H](C)[C@H]1COC(C)(C)O1 :: 90%
39) CC(Cl)C(=O)N(C)Cc1ccccc1 (centres unmarked) [6-I13, N-benzyl-2-chloro-N-methylpropanamide] :: 105%
40) C=CC(=O)NCc1cc(C(F)(F)F)on1 :: 84.8%
41) CC1CN(c2ccc(NC(=O)C(C#N)=Cc3ccco3)cc2)CC(C)O1 (centres unmarked) :: 109%
42) O=C(CCl)N(Cc1ccccc1)Cc1cc2n(n1)CCCC2 :: 0.904%
43) CCOc1ccccc1NC(=O)C(C#N)=Cc1c(C)[nH]c2ccccc12 :: 100%
44) C=CC(=O)NCc1cnc(C)n1-c1ccccc1 :: 49%

====

assay-name: in vitro
measurement-setup: human, hek293t cells
This listing pairs molecules with measured viability at 48 h, 25 µM.
metric-name: viability at 48 h, 25 µM (%)

1) CC(C)CC(=O)Nc1ccc(C(=O)CCl)cc1 :: 11.7
2) C=CC(=O)N(CC)CC(=O)N1CCN(c2ccsc2C#N)CC1 :: 62.6
3) C=CC(=O)N1CCOC2(CCCCCC2)C1 :: 73.9
4) CC1=CSC(=C(C#N)C(=O)NCc2ccco2)N1c1ccccc1 :: 114
5) CC(C)CN(C(=O)CCl)C1CCS(=O)(=O)C1 (stereo not drawn) :: 2.44
6) C=CC(=O)Nc1cn(C)nc1OC(C)C :: 71.2

====

assay-name: in vitro
measurement-setup: human, hek293t cells
metric-name: viability at 48 h, 25 µM (%)

1. C=CC(=O)NC1CCOC(c2cnn(C)c2)C1 (centres unmarked) :: 73
2. C=CC(=O)N1CCCC(n2ccnn2)C1 (centres unmarked) :: 93.6
3. COc1cccc(CN(C(=O)CCl)C23CC4CC(CC(C4)C2)C3)c1 :: 0.151
4. CC(Cl)C(=O)N(C)C1CCN(C(=O)c2ccccc2)CC1 (centres unmarked) :: 95.9
5. C=CC(=O)N1CCC(C(=O)N2CCCC(CC(N)=O)CC2)CC1 (centres unmarked) :: 65.1
6. COc1ccc(NC(=O)N2CCSSCC2)cc1 :: 103
7. COc1ccc(CNC(=O)C(C)Cl)cc1OC (centres unmarked) :: 113
8. CC(Cl)C(=O)N1C2CCC1CC1(C2)CC1(F)F (centres unmarked) :: 112
9. Cc1ccccc1NC(=O)C(C#N)=Cc1ccsc1 :: 77.5
10. C=CC(=O)N(Cc1cccc(Cl)c1F)C(C)C1CCOCC1 (centres unmarked) :: 58.7
11. COc1cc(C=C(C#N)C(=O)Nc2ccc(Cl)cc2)cc(OC)c1 :: 81.7

====

assay-name: in vitro
measurement-setup: human, hek293t cells
Binary call on viability at 48 h, 25 µM with cut-off 2%: strictly below means Met, and equality or higher means Not met.

1. Cc1ccc([N+](=O)[O-])cc1N1C(=O)C=CC1=O :: Not met
2. Cc1ccc(C(=O)CN(C(=O)CCl)c2ccccc2)cc1 :: Met
3. Cc1nn(-c2ccccc2)c(C)c1CNC(=O)CCl :: Not met
4. COc1cccc2cc(C=C(C#N)C(=O)Nc3ccc(C)cc3)oc12 :: Not met
5. CC(Cl)C(=O)NCc1ccon1 (stereo not drawn) :: Not met
6. C=CC(=O)NCc1cccc(-n2cccn2)n1 :: Not met

====

assay-name: in vitro
measurement-setup: human, hek293t cells
metric-name: viability at 48 h, 25 µM (%)

1) COCC(C)NC(=O)C(C#N)=Cc1cccc(F)c1F (stereo not drawn) :: 114
2) N#CC(C(=O)CCl)=C1NC(C23CC4CC(CC(C4)C2)C3)=CS1 :: 61.8
3) C=CC(=O)NCc1cccc(NS(C)(=O)=O)c1 :: 31.7
4) C=CC(=O)N(Cc1ccc(F)c(C)c1)CC1(O)CCSCC1 :: 55.6
5) CC(Cl)C(=O)NC(CC1CCCCC1)c1ncccn1 (stereo not drawn) :: 91.2
6) COc1ccc(CNC(=O)CCl)cc1OC :: 23.8

====

Collected viability at 48 h, 25 µM values appear next to each entry.
assay-name: in vitro
measurement-setup: human, hek293t cells
metric-name: viability at 48 h, 25 µM

1. N#CC(=Cc1cc(F)ccc1F)C(=O)Nc1ccc(F)cc1 :: 87.5%
2. CC(C)c1noc2ncc(C(=O)N3CCSSCC3)cc12 :: 86.3%
3. C=CCNC(=O)C(C#N)=Cc1ccc(C(=O)O)cc1 :: 87.1%
4. C=CC(=O)NCCC(=O)Nc1c(C)c(C)nn1C :: 93%
5. C=CC(=O)N1CCC(F)CC1 :: 69.9%
6. N#CC(=Cc1ccc(N2CCCCC2)cc1)C(=O)NC1CC1 :: 82.3%
7. COc1ccc(NC(=O)CCl)cc1S(=O)(=O)N1CCOCC1 :: 0.627%
8. N#CC(=Cc1cccnc1)C(=O)Nc1ccc(F)cc1 :: 125%
9. C=CC(=O)NCC1CS(=O)(=O)c2ccccc2O1 (centres unmarked) :: 79.4%
10. CC(NC(=O)CCl)c1ccc2c(c1)CCCC2 (centres unmarked) :: 1.06%
11. CC(Cl)C(=O)N1CCC(Cc2ccncc2)C1 (centres unmarked) :: 106%
